- System: Pseudomonas aeruginosa
- assay_summary: Antimicrobial susceptibility testing (MIC), BD Phoenix Automated Microbiology System; note: key: R, resistant; I, intermediate; S, susceptible; R*: *As a rule, when ESBL is detected, an interpretation of susceptible or intermediate for penicillins, cephalosporins and aztreonam is reported as resistant
- Format: cell-based
- condition_details: Pseudomonas aeruginosa isolate 2
readout_type: interpretation of the result

* C[C@@H](O)[C@H]1C(=O)N2C(C(=O)O)=C(S[C@@H]3CN[C@H](C(=O)N(C)C)C3)[C@H](C)[C@H]12 [Mero., Meropenem] | R
* CO[C@@]1(NC(=O)Cc2cccs2)C(=O)N2C(C(=O)O)=C(COC(N)=O)CS[C@@H]21 [Cx., Cefoxitin] | R
* CC(C)(O/N=C(\C(=O)N[C@@H]1C(=O)N2C(C(=O)[O-])=C(C[n+]3ccccc3)CS[C@H]12)c1csc(N)n1)C(=O)O [Ceft., Ceftazidime] | S
* CN(C)[C@@H]1C(O)=C(C(N)=O)C(=O)[C@@]2(O)C(O)=C3C(=O)c4c(O)cccc4[C@@](C)(O)[C@H]3C[C@@H]12 [Tet., Tetracycline] | R
* NC[C@H]1O[C@H](O[C@H]2[C@H](O)[C@@H](O[C@H]3O[C@H](CO)[C@@H](O)[C@H](N)[C@H]3O)[C@H](N)C[C@@H]2N)[C@H](N)C[C@@H]1O [Tob., Tobramycin] | R
* CC1(C)S[C@@H]2[C@H](NC(=O)[C@H](N)c3ccccc3)C(=O)N2[C@H]1C(=O)O [Amp., Ampicillin] | R

---

- Test system: Klebsiella ssp.
- assay_summary: Antimicrobial susceptibility testing (MIC), BD Phoenix Automated Microbiology System; note: key: R, resistant; I, intermediate; S, susceptible; R*: *As a rule, when ESBL is detected, an interpretation of susceptible or intermediate for penicillins, cephalosporins and aztreonam is reported as resistant
- Type: cell-based
- condition_details: Klebsiella ssp. isolate 1
readout_type: interpretation of the result

• CO/N=C(\C(=O)N[C@@H]1C(=O)N2C(C(=O)O)=C(COC(C)=O)CS[C@H]12)c1csc(N)n1 = R
• CC(C)(O/N=C(\C(=O)N[C@@H]1C(=O)N2C(C(=O)[O-])=C(C[n+]3ccccc3)CS[C@H]12)c1csc(N)n1)C(=O)O = R
• C[C@@H](O)[C@H]1C(=O)N2C(C(=O)O)=C(SCCN=CN)C[C@H]12 = S
• C[C@@H](O)[C@H]1C(=O)N2C(C(=O)O)=C(S[C@@H]3CN[C@H](C(=O)N(C)C)C3)[C@H](C)[C@H]12 = S
• NC[C@H]1O[C@H](O[C@H]2[C@H](O)[C@@H](O[C@H]3O[C@H](CO)[C@@H](O)[C@H](N)[C@H]3O)[C@H](N)C[C@@H]2N)[C@H](N)C[C@@H]1O = I
• C[C@H]1[C@H](NC(=O)/C(=N\OC(C)(C)C(=O)O)c2csc(N)n2)C(=O)N1S(=O)(=O)O = R
• CN(C)[C@@H]1C(O)=C(C(N)=O)C(=O)[C@@]2(O)C(O)=C3C(=O)c4c(O)cccc4[C@@](C)(O)[C@H]3C[C@@H]12 = R
• CC1(C)S[C@@H]2[C@H](NC(=O)[C@H](N)c3ccccc3)C(=O)N2[C@H]1C(=O)O = R

---

- System: Pseudomonas aeruginosa
- assay_summary: Antimicrobial susceptibility testing (MIC), BD Phoenix Automated Microbiology System; note: key: R, resistant; I, intermediate; S, susceptible; R*: *As a rule, when ESBL is detected, an interpretation of susceptible or intermediate for penicillins, cephalosporins and aztreonam is reported as resistant
- Type: cell-based
- condition_details: Pseudomonas aeruginosa isolate 3
readout_type: interpretation of the result

* C[C@H]1COc2c(N3CCN(C)CC3)c(F)cc3c(=O)c(C(=O)O)cn1c23 [Lev., Levofloxacin] | R
* CC(C)(O/N=C(\C(=O)N[C@@H]1C(=O)N2C(C(=O)[O-])=C(C[n+]3ccccc3)CS[C@H]12)c1csc(N)n1)C(=O)O [Ceft., Ceftazidime] | R
* NCC[C@H](O)C(=O)N[C@@H]1C[C@H](N)[C@@H](O[C@H]2O[C@H](CN)[C@@H](O)[C@H](O)[C@H]2O)[C@H](O)[C@H]1O[C@H]1O[C@H](CO)[C@@H](O)[C@H](N)[C@H]1O [Amik., Amikacin] | S
* C[C@@H](O)[C@H]1C(=O)N2C(C(=O)O)=C(SCCN=CN)C[C@H]12 [Im., Imipenem] | R
* CO/N=C(\C(=O)N[C@@H]1C(=O)N2C(C(=O)O)=C(CSc3nc(=O)c(=O)[nH]n3C)CS[C@H]12)c1csc(N)n1 [Co., Ceftriaxone] | R
* CC1(C)S[C@@H]2[C@H](NC(=O)[C@H](N)c3ccccc3)C(=O)N2[C@H]1C(=O)O [Amp., Ampicillin] | R
* C[C@@H](O)[C@H]1C(=O)N2C(C(=O)O)=C(S[C@@H]3CN[C@H](C(=O)N(C)C)C3)[C@H](C)[C@H]12 [Mero., Meropenem] | R
* Cc1nnc(SCC2=C(C(=O)O)N3C(=O)[C@@H](NC(=O)Cn4cnnn4)[C@H]3SC2)s1 [Cefa., Cefazolin] | R
* NC[C@H]1O[C@H](O[C@H]2[C@H](O)[C@@H](O[C@H]3O[C@H](CO)[C@@H](O)[C@H](N)[C@H]3O)[C@H](N)C[C@@H]2N)[C@H](N)C[C@@H]1O [Tob., Tobramycin] | S
* CN(C)[C@@H]1C(O)=C(C(N)=O)C(=O)[C@@]2(O)C(O)=C3C(=O)c4c(O)cccc4[C@@](C)(O)[C@H]3C[C@@H]12 [Tet., Tetracycline] | R
* CO[C@@]1(NC(=O)Cc2cccs2)C(=O)N2C(C(=O)O)=C(COC(N)=O)CS[C@@H]21 [Cx., Cefoxitin] | R
* O=C1CN(/N=C/c2ccc([N+](=O)[O-])o2)C(=O)N1 [Nf., Nitrofurantoin] | R
* CO/N=C(\C(=O)N[C@@H]1C(=O)N2C(C(=O)O)=C(COC(N)=O)CS[C@H]12)c1ccco1 [Cefu., Cefuroxime] | R

---

Documented MIC across a set of compounds
- Test system: Escherichia coli
- assay_summary: Antimicrobial susceptibility testing (MIC), BD Phoenix Automated Microbiology System
- Type: cell-based
- condition_details: Escherichia coli, read-out: minimal inhibiting concentration, Escherichia coli isolate 5
readout_type: MIC

* CO[C@@]1(NC(=O)Cc2cccs2)C(=O)N2C(C(=O)O)=C(COC(N)=O)CS[C@@H]21 | 8 mg/L
* NC[C@H]1O[C@H](O[C@H]2[C@H](O)[C@@H](O[C@H]3O[C@H](CO)[C@@H](O)[C@H](N)[C@H]3O)[C@H](N)C[C@@H]2N)[C@H](N)C[C@@H]1O | > 8 mg/L
* Cc1nnc(SCC2=C(C(=O)O)N3C(=O)[C@@H](NC(=O)Cn4cnnn4)[C@H]3SC2)s1 | > 16 mg/L
* C[C@H]1COc2c(N3CCN(C)CC3)c(F)cc3c(=O)c(C(=O)O)cn1c23 | > 4 mg/L

---

- Tested on: Escherichia coli
- assay_summary: Antimicrobial susceptibility testing (MIC), BD Phoenix Automated Microbiology System
- Type: cell-based
- condition_details: Escherichia coli, Escherichia coli isolate 1; read-out: minimal inhibiting concentration
- Excerpt: The inventors performed antimicrobial susceptibility testing (AST) by determining the minimal inhibiting concentration (MIC) of a panel of antimicrobials on all twenty bacterial isolates using the BD Phoenix Automated Microbiology System (Table 3). Antimicrobial panels included several drugs from each of the four most commonly used classes of antimicrobials, aminoglycosides, β-lactams, carbapenems and fluoroquinolones. […]
readout_type: MIC

* O=C(O)c1cn(C2CC2)c2cc(N3CCNCC3)c(F)cc2c1=O | > 2 µg/mL
* CN(C)[C@@H]1C(O)=C(C(N)=O)C(=O)[C@@]2(O)C(O)=C3C(=O)c4c(O)cccc4[C@@](C)(O)[C@H]3C[C@@H]12 | > 8 µg/mL
* CC(C)(O/N=C(\C(=O)N[C@@H]1C(=O)N2C(C(=O)[O-])=C(C[n+]3ccccc3)CS[C@H]12)c1csc(N)n1)C(=O)O | > 16 µg/mL
* C[C@H]1[C@H](NC(=O)/C(=N\OC(C)(C)C(=O)O)c2csc(N)n2)C(=O)N1S(=O)(=O)O | > 16 µg/mL
